The measured values listed here are drawn from paper PMC11094368.

- System: Klebsiella pneumoniae LMG20218
- Construct: LMG20218
- assay.remarks: microbe, parasite or virus in culture
- Parameters: species or system E. coli, B. subtilis, K. pneumoniae, A. baumannii; bacterial growth inhibition in LB, twofold dilutions, OD600 tracking
- test.context: Klebsiella pneumoniae, LMG20218, read-out: MIC50
pIC50: −log10 of the molar value.
value.kind: pIC50

{"structure.notation": "CCOc1ccc2nc(N(Cc3ccccc3)C(C)=O)sc2c1", "tested.on": "Klebsiella pneumoniae LMG20218", "assay.result": "< 4.40"}
{"structure.notation": "CCOc1ccc2nc(N(Cc3ccccc3OC)C(C)=O)sc2c1", "tested.on": "Klebsiella pneumoniae LMG20218", "assay.result": "< 4.40"}

---

- Tested on: Mycobacterium abscessus RIVM
- Construct: RIVM
- assay.remarks: microbe, parasite or virus in culture
- Design: resazurin microtiter plate assay (REMA), growth inhibition in 7H9 ADS glycerol tyloxapol
- test.context: Mycobacteroides abscessus, 48 h, read-out: MIC50
pIC50: −log10 of the molar value.

{"structure.notation": "CCOc1ccc2nc(N(Cc3ccccc3OC)C(C)=O)sc2c1", "pIC50": "< 4.40"}
{"structure.notation": "CCOc1ccc2nc(N(Cc3ccccc3)C(C)=O)sc2c1", "pIC50": "< 4.40"}

---

- Test system: Mycobacterium smegmatis MC^2-155
- Construct: MC2-155
- assay.remarks: microbe, parasite or virus in culture
- Design: resazurin microtiter plate assay (REMA), growth inhibition in 7H9 ADS glycerol tyloxapol
- test.context: Mycolicibacterium smegmatis, 24 h, read-out: MIC50
pIC50: −log10 of the molar value.

{"structure.notation": "CCOc1ccc2nc(N(Cc3ccccc3OC)C(C)=O)sc2c1", "pIC50": "< 4.40"}
